Provenance of the data: patent US7226924B2

- Tested on: NMDA/MK801-binding site
- protocol_description: NMDA/MK801-binding site inhibition
- Design: dose or concentration left out as unconfirmed
Measured % inhibition of NMDA/MK801-binding site accompanies every entry in the list below.
Numeric answer only, unit % assumed.

In the examples that follow, each entry is paired with its recorded % inhibition of NMDA/MK801-binding site.
NC(=O)C1=NC(Cl)=C(N)N2C1=NC(c1ccccn1)CC2Sc1ccccc1 (centres unmarked) [Example 51] | 40
BrC1=CN2C(=NC(c3ccccn3)C3CCC=CC32)N=C1 (centres unmarked) [Example 62] | 40
OC1=CC(O)=NC2=NC(c3ccccn3)C3C4C=CC(C4)C3N12 (centres unmarked) [Example 61] | 40

QUERY: Request - read-out % inhibition of NMDA/MK801-binding site | tested on NMDA/MK801-binding site | molecule N#CC1=NC(c2ccccc2)=CN2C1=NC(c1ccccn1)CC2Sc1ccccc1 (centres unmarked) [Example 52]
RESULT: 47

QUERY: Queued: BrC1=CN2C(=NC(c3ccccn3)CC2Sc2ccccc2)N=C1 (centres unmarked) [Example 53]
RESULT: 44
